Data credit: patent US20210347873A1

Please provide measured log10 koff for the entries that follow.
- Tested On: T1, extracellular domain of human BLyS protein (hBLyS-ECD), His-tagged, Ala134-Leu285 (human, UniProt Q9Y275 134-285)
- T1 construct: Expressed in HEK293 cells and purified on a Ni column; also called immunogen
- T1 sequence (Q9Y275 134-285): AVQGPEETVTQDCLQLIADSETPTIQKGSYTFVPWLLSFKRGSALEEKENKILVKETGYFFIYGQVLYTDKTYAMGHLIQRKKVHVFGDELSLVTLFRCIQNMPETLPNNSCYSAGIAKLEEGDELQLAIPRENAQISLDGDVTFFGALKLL
- Procedure Details: SPR (Biacore), antibody captured by anti-human Fc, hBLyS-ECD as analyte
In our notation, the value equals log10 of koff in s⁻¹.

c97A3C2H4 (antibody, V domains shown, also called chimeric antibody c97A3C2H4) VH: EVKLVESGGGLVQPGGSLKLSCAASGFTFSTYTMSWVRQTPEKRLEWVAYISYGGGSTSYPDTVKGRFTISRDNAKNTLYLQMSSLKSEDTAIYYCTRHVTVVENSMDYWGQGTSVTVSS VL: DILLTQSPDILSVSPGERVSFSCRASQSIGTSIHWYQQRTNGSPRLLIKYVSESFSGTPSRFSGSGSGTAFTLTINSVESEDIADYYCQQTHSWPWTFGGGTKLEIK    -4.13

Record log10 koff per entry; entries follow.
1. c97E7B3F2 (antibody, V domains shown) VH: EVQLQQSGPELVKSGASVKISCKASGYTFTDHKMHWVKQSHGKSLEWIGYISPYNGGTGYNQKFKSKVTLTVDISSSTAYMELRSLTSEDSAVYYCARWGFYDVMDSWGQGTSVTVSS VL: DVLLTQTPLSLPVSLGDQASISCRSSQTIVHIIGDTYLEWYLQKPGQSPKLLIYKVSNRFSGVPDRFSGSGAGTDFTLKISRVEAEDLGVYYCFQGSHVPRTFGGGTKLEIK
2. c8E7D9C7F5 (antibody, V domains shown, also called chimeric antibody c8E7D9C7F5) VH: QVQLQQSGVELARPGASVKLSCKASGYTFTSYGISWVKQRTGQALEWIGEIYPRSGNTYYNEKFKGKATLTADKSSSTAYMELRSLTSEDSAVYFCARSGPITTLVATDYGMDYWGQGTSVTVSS VL: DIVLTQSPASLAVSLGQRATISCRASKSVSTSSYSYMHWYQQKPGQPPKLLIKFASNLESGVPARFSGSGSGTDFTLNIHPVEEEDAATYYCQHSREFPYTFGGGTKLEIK
3. c20D1B6E9E5 (antibody, V domains shown) VH: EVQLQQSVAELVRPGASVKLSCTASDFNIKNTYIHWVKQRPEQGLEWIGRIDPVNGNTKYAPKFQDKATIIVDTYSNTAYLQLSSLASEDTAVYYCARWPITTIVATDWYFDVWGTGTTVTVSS VL: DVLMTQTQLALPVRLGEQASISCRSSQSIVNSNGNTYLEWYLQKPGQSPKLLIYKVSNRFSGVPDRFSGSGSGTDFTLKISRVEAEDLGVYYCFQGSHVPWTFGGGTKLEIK
4. c67A2E1D10 (antibody, V domains shown) VH: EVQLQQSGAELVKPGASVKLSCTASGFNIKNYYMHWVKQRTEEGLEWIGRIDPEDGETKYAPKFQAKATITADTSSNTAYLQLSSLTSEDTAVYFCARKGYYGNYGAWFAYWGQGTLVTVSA VL: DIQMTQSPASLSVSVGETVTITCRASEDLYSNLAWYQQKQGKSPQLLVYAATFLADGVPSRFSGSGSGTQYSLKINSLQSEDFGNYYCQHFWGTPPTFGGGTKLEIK

1: -4.31; 2: -2.96; 3: -3.68; 4: -3.80

# batch: return log10 koff for each of the 2 binders below
1. c35E6F7C3 (antibody, V domains shown) VH: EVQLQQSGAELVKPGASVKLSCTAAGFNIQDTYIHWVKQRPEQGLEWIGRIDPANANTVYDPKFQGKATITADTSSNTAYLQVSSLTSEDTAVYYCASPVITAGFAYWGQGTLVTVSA VL: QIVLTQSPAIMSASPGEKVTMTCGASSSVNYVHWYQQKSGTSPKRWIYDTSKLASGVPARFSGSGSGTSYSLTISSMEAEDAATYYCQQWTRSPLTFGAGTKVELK
2. c93C6F10D3 (antibody, V domains shown) VH: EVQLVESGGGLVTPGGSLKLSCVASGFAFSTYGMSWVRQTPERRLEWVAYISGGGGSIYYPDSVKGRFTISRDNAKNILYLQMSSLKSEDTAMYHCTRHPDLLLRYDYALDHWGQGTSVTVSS VL: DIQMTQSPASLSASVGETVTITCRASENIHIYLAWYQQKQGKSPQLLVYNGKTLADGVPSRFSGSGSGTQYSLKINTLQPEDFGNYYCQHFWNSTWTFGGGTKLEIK

-3.56
-3.67
